Test system: Bordetella bronchiseptica
protocolSummary: Antibacterial activity against Bordetella bronchiseptica CUN 11844-99 after 24 hrs in Mueller-Hinton broth medium
Assay type: functional
Where a SMILES comes first, the peptide text is derived from it.
Reported MIC by item:
Enter your answer as a number in µg/mL; do not include the unit.

CC[C@H](C)[C@H](NC(=O)[C@H](CCCCN)NC(=O)[C@H](CCCCN)NC(=O)[C@H](CO)NC(=O)[C@@H](NC(=O)CNC(=O)[C@H](CCCNC(=N)N)NC(=O)[C@H](CC(C)C)NC(=O)[C@@H](NC(=O)[C@@H](N)CCCCN)[C@@H](C)CC)C(C)C)C(=O)N[C@@H](CCSC)C(=O)N[C@@H](CCCNC(=N)N)C(=O)N[C@@H](CCCNC(=N)N)C(=O)N[C@H](C(=O)N[C@@H](CC(C)C)C(=O)N[C@H](C(=O)NCC(=O)N[C@@H](CCCCN)C(=O)N[C@@H](CCCCN)C(N)=O)[C@@H](C)O)[C@@H](C)CC (H-KILRGVSKKIMRRILTGKK-NH2)    4

The value of MIC measured for the molecule CC[C@H](C)[C@H](NC(=O)[C@H](CCCNC(=N)N)NC(=O)[C@H](CCCCN)NC(=O)[C@H](CO)NC(=O)[C@@H](NC(=O)CNC(=O)[C@H](CC(C)C)NC(=O)[C@@H](NC(=O)[C@@H](N)CCCCN)[C@@H](C)CC)C(C)C)C(=O)N[C@@H](CC(C)C)C(=O)N[C@H](C(=O)NCC(=O)N[C@@H](CCCCN)C(=O)N[C@@H](CCCCN)C(N)=O)[C@@H](C)O (H-KILGVSKRILTGKK-NH2) turned out to be 256
